Below, each entry is listed with its recorded Efficacy.
tested target: Peroxisome proliferator-activated receptor alpha (Homo sapiens) (UniProt Q07869)
Sequence (Q07869 whole entry, the tested form may be a part): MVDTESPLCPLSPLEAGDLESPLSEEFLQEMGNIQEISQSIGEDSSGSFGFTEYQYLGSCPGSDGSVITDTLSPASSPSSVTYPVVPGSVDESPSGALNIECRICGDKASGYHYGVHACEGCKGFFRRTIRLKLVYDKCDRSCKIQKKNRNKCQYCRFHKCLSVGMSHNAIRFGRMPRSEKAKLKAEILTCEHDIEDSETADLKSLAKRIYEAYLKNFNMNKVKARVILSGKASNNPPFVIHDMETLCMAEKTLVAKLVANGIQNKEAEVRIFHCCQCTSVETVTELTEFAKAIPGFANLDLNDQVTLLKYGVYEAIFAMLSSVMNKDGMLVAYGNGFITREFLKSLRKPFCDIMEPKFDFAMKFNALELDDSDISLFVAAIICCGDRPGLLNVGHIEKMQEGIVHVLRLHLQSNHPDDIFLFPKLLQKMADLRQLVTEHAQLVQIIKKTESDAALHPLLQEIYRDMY
protocol notes: Agonist activity at GAL4N fused human PPARalpha LBD expressed in HEK293 cells co-expressing TK-MH100x4-Luc after 24 hrs by luciferase reporter gene assay relative to GW7647
Type: cell-based

Look over these answered cases.
CC(=O)NC(C)c1nc(-c2ccc(OCCCOc3ccc(Oc4ccccc4)cc3)cc2)no1 (configuration not stated) | 17 to 27%
CC(=O)NC(C)c1nc(-c2ccc(OCCc3ccc(OS(C)(=O)=O)cc3)cc2)no1 (configuration not stated) | 13 to 37%

Now look at this entry.
Annotate the molecule CC(=O)NC(C)c1nc(-c2ccc(OCC=C(c3ccc(Br)cc3)c3ccc(Br)cc3)cc2)no1 (configuration not stated) with its measured Efficacy.
3 to 15%
